- Measurement Description: Primary qHTS for delayed death inhibitors of the malarial parasite plastid, 96 hour incubation
- Experimental Parameters: P. falciparum luciferase reporter growth; series mostly up to 28.7 µM
About 22,000 (6.9%) of roughly 320,000 compounds were called active. Inconclusive results (about 27%) are left out. The call rests on the fitted dose curve; in most records, active means well fitted inhibition curve with a large enough effect; inconclusive means small, poorly fitted or top-dose-only effect, or another doubt; inactive means no such curve, though single readings can be large or run the other way. The sample as a whole holds a higher share of actives than the screen did.
Outcomes: 1.0 = active, 0.0 = inactive

[[record]]
molecule = "Cn1c(=O)n(C)c2cc(C(=O)Nc3ccc(Br)cc3)ccc21"
qualitative_label = 0.0

[[record]]
molecule = "Cc1c(Cl)c([N+](=O)[O-])nn1CCCC(=O)Nc1cc(Cl)ccc1Cl"
qualitative_label = 0.0

[[record]]
molecule = "CCOC(=O)N1CCC(N2Cc3cccc(C(=O)Nc4c(C)cccc4CC)c3C2=O)CC1"
qualitative_label = 0.0

[[record]]
molecule = "COc1ccc(-n2ncc3c(N4CCCc5ccccc54)ncnc32)cc1"
qualitative_label = 1.0

[[record]]
molecule = "O=C(Nc1cccc([N+](=O)[O-])c1)Nn1cnnc1"
qualitative_label = 0.0

[[record]]
molecule = "COC(=O)c1ccc(/C=C2/C(=O)Oc3ccccc32)cc1"
qualitative_label = 0.0

[[record]]
molecule = "Cc1cccc(OCC(=O)Nc2ccccc2F)c1"
qualitative_label = 0.0

[[record]]
molecule = "O=C(NCCS(=O)(=O)N1CCN(c2ccc(F)cc2)CC1)c1ccc2c(c1)OCO2"
qualitative_label = 0.0

[[record]]
molecule = "O=C(NNC(=O)C1CCC1)c1ccccc1"
qualitative_label = 0.0

[[record]]
molecule = "Cc1ccc(N=C2SCCCN2C(=O)c2cccc(N3C(=O)CCC3=O)c2)cc1Cl"
qualitative_label = 0.0

[[record]]
molecule = "Cc1nc(C)c(C(=O)N(c2ccc(C)c(C)c2)C(C(=O)NCc2ccco2)c2ccccc2)s1 (configuration not stated)"
qualitative_label = 1.0

[[record]]
molecule = "COc1ccc(-c2nc3c(s2)CCc2onc(-c4ccc(OC)cc4)c2-3)cc1"
qualitative_label = 0.0

[[record]]
molecule = "CCOC(=O)C1CCCN(S(=O)(=O)c2ccc3c(c2)C(C)(C)C(=O)N3C)C1 (configuration not stated)"
qualitative_label = 0.0

[[record]]
molecule = "CC(=O)N/C(=C\\c1ccc(F)cc1)C(=O)NC(Cc1ccccc1)C(=O)O (configuration not stated)"
qualitative_label = 0.0

[[record]]
molecule = "COCCCNC(=O)C1CC(=O)N(c2ccc(C)cc2)C1 (configuration not stated)"
qualitative_label = 1.0

[[record]]
molecule = "COc1ccc(NC(=O)CS(=O)(=O)c2ccccc2)cc1"
qualitative_label = 0.0

[[record]]
molecule = "CCOc1ccc(C(=O)Nc2ccc(S(=O)(=O)Nc3cc(C)on3)cc2)cc1"
qualitative_label = 1.0

[[record]]
molecule = "COc1ccc(-c2nnc(SCC(=O)c3cccs3)o2)c(OC)c1"
qualitative_label = 0.0

[[record]]
molecule = "COc1ccc(-c2nnc(NC(=O)CS(=O)(=O)c3ccc(Cl)cc3)o2)c(OC)c1"
qualitative_label = 1.0

[[record]]
molecule = "Cc1ccccc1OCc1nnc(SCC(=O)N2c3ccccc3Sc3ccc(Cl)cc32)o1"
qualitative_label = 1.0

[[record]]
molecule = "O=C(COC(=O)c1cccs1)Nc1ccccc1Cl"
qualitative_label = 0.0

[[record]]
molecule = "Cc1cccc(OP(=O)(Nc2c(C)n(C)n(-c3ccccc3)c2=O)Oc2cccc(C)c2)c1"
qualitative_label = 0.0

[[record]]
molecule = "Cc1cccc(OP(=O)(Oc2cccc(C)c2)OC(c2ccccc2)C(F)(F)F)c1 (configuration not stated)"
qualitative_label = 1.0

[[record]]
molecule = "COc1cc(CNCc2ccc(OC)c3ccccc23)cc(OC)c1OC"
qualitative_label = 0.0

[[record]]
molecule = "CCOC(=O)N1CCN(C(=O)COc2ccc3oc4c(c3c2)CCCC4)CC1"
qualitative_label = 0.0

[[record]]
molecule = "Cc1nc2nc(C)c(CCC(=O)N3CCC4(CC3)OCCO4)c(C)n2n1"
qualitative_label = 1.0

[[record]]
molecule = "CC1(C)c2[nH]c3ccccc3c2C[C@H]2C(=O)N(N)CC(=O)N21"
qualitative_label = 0.0

[[record]]
molecule = "COc1ccc(CCNC(=O)CCc2cn(C)c3ccccc23)c(OC)c1"
qualitative_label = 0.0

[[record]]
molecule = "O=C(NC(Cc1ccccc1)C(=O)O)/C(=C\\c1ccccc1)NC(=O)c1ccco1 (configuration not stated)"
qualitative_label = 0.0

[[record]]
molecule = "Cc1ccc(CNC(=O)C2CCCN2S(=O)(=O)c2ccc3c(c2)C(C)(C)C(=O)N3C)cc1 (configuration not stated)"
qualitative_label = 1.0

[[record]]
molecule = "CC(C)NC(=O)CSc1nnc(COc2ccccc2Cl)o1"
qualitative_label = 0.0

[[record]]
molecule = "COc1cc(OC)cc(C(=O)Nc2ccc(S(=O)(=O)Nc3cc(C)on3)cc2)c1"
qualitative_label = 0.0

